Target: human TGR5 (Homo sapiens, UniProt Q8TDU6)
Sequence (Q8TDU6 whole entry): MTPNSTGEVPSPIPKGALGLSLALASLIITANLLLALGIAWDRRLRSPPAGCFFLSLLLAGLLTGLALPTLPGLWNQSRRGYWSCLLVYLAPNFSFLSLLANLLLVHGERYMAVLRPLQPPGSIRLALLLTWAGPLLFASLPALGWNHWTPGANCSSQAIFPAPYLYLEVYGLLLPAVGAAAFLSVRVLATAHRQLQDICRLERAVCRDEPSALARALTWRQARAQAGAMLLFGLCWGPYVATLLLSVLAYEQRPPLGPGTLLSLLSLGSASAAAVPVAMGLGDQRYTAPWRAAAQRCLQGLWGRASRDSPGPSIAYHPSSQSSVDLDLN
Test: cAMP assay, HEK293 cells stably expressing human TGR5
Examples of compounds with documented EC50 follow.
Please state the figure in nM; there is no need to write the unit.

CC[C@H]1[C@H](O)[C@@H]2[C@H](CC[C@]3(C)[C@@H]([C@H](C)C[C@H](C)C(=O)O)CC[C@@H]23)[C@@]2(C)CC[C@@H](O)C[C@@H]12 ... 710

Tell me reported EC50 for "C[C@H](C[C@H](C)C(=O)O)[C@H]1CC[C@H]2[C@@H]3CC[C@@H]4C[C@H](O)CC[C@]4(C)[C@H]3CC[C@]12C" , tested with human TGR5 (Homo sapiens, UniProt Q8TDU6). 210
